TESTED SYSTEM: T1, human CD28 (human, UniProt P10747 19-152, limits assumed)
T1 construct: also called Cluster of Differentiation 28; Tp44
MEASUREMENT PROTOCOL: selection from yeast-presented synthetic human antibody libraries

{"BINDER": "Ab No. 21 (antibody, V domains shown, IgG format) VH: QVQLVQSGAEVKKPGSSVKVSCKASGGTFSSYAISWVRQAPGQGLEWMGGIIPISGTANYAQKFQGRVTITADESTSTAYMELSSLRSEDTAVYYCTRDLGFGAIRDTWGQGTLVTVSS VL: EIVLTQSPATLSLSPGERATLSCRASQSVSSYLAWFQQKPGQAPRLLIYDASNRATGIPARFSGSGSGTDFTLTISSLEPEDFAVYYCQQSLNLPITFGGGTKVEIK", "binding result": "binds"}
{"BINDER": "Ab No. 5 (antibody, V domains shown, IgG format) VH: QVQLVQSGAEVKKPGSSVKVSCKASGGTFSSYAISWVRQAPGQGLEWMGGIIPISGTANYAQKFQGRVTITADESTSTAYMELSSLRSEDTAVYYCAKGGFGAPLPTWGQGTLVTVSS VL: DIQLTQSPSSVSASVGDRVTITCRASQDISSWLAWYQQKPGKAPKLLIYAASSLQSGVPSRFSGSGSGTDFTLTISSLQPEDFATYYCQQGNAHPFTFGGGTKVEIK", "binding result": "binds"}
{"BINDER": "Ab No. 14 (antibody, V domains shown, IgG format) VH: QVQLVQSGAEVKKPGSSVKVSCKASGGTFSSYAISWVRQAPGQGLEWMGGIIPISGTANYAQKFQGRVTITADESTSTAYMELSSLRSEDTAVYYCARGSLSLAAETPLWGRGTLVTVSS VL: EIVLTQSPATLSLSPGERATLSCRASQSVSSYLAWYQQKPGQAPRLLIYDASKRATGIPARFSGSGSGTDFTLTISSLEPEDFAVYYCQQYLNFPITFGGGTKVEIK", "binding result": "binds"}
